# METHOD SUMMARY: Autonomous activity test in mice
# EXPERIMENTAL CONDITIONS: male, ICR, mouse, in vivo, iv
Record form. Attribute: ED50 at 30 min. Fill in for each entry.
Write down the value, and be sure its unit follows.

Known results for compounds:
CC(C)C[C@@H](NC(=O)[C@@H](Cc1ccccc1)NC(=O)C[C@@H](N)c1ccccc1)C(=O)N[C@H](CCCCN)C(=O)N1CCC(N)(C(=O)O)CC1 | 7.34 mg/kg
CC(C)C[C@@H](NC(=O)[C@@H](Cc1ccccc1)NC(=O)N(Cc1ccccc1)C1CCNC1)C(=O)N[C@H](CCCCN)C(=O)N1CCC(N)(C(=O)O)CC1 (stereo partly drawn) | 4.59 mg/kg

Let us move to another entry and its ED50 at 30 min.
Task item: Please report the recorded ED50 at 30 min for `CC(C)C[C@@H](NC(=O)[C@@H](Cc1ccccc1)NC(=O)N(CCN)Cc1ccccc1)C(=O)N[C@H](CCCCN)C(=O)N1CCC2(CC1)NC(=O)NC2=O` .
Reply: 1.35 mg/kg

---

# STUDY SYSTEM: κ receptor (Homo sapiens (Human))
# METHOD SUMMARY: Competitive Kappa receptor binding assay (3H-U69593)
Square brackets hold non-standard residues; d marks the D form. Peptide text beside a SMILES is read from it. * marks the point of attachment. Piperidin1yl(4-NH2,4-COOH) = NC1(C(=O)O)CCN(*)CC1; dPhLac = O=C(O)[C@H](O)Cc1ccccc1; X4 = COC(=O)NC1CCN(*)CC1
READOUT LABEL: log10 Ki (log10 of the value in pM)
The common logarithm of Ki in pM is what is listed.

CC(C)C[C@@H](NC(=O)[C@@H](Cc1ccccc1)NC(=O)[C@H](N)Cc1ccccc1)C(=O)N[C@H](CCCCN)C(=O)N1CCS(=N)(=O)CC1 | 2.62
CC(C)C[C@@H](NC(=O)[C@@H](Cc1ccccc1)NC(=O)N(Cc1ccccc1)C1CCNC1)C(=O)N[C@H](CCCCN)C(=O)N1CCC(N)(C(=O)O)CC1 (some centres unmarked) | 2.94
CNC(=O)NC1CCN(C(=O)[C@@H](CCCCN)NC(=O)[C@@H](CC(C)C)NC(=O)[C@@H](Cc2ccccc2)NC(=O)N(CCN)Cc2ccccc2)CC1 | 2.64
CC(C)C[C@@H](NC(=O)[C@@H](Cc1ccccc1)NC(=O)C[C@@H](N)c1ccccc1)C(=O)N[C@H](CCCCN)C(=O)N1CCC(N)(C(=O)O)CC1 | 3.45
CC(C)C[C@@H](NC(=O)[C@@H](Cc1ccccc1)NC(=O)N(C)C(CN)c1ccccc1)C(=O)N[C@H](CCCCN)C(=O)N1CCNCC1 (some centres unmarked) | 2.23
CC(C)C[C@@H](NC(=O)[C@@H](Cc1ccccc1)NC(=O)[C@H](N)Cc1ccccc1)C(=O)N[C@H](CCCCN)C(=O)N1CCC2(CC1)OC(=O)Nc1ncccc12 | 2.48

Give log10 Ki for each listed item.
1. CC(C)C[C@@H](NC(=O)[C@@H](Cc1ccccc1)NC(=O)N(CCN)Cc1ccccc1)C(=O)N[C@H](CCCCN)C(=O)N1CCC(NC(=O)OC2CCOCC2)CC1
2. CC(C)C[C@@H](NC(=O)[C@@H](Cc1ccccc1)NC(=O)[C@H](O)Cc1ccccc1)C(=O)N[C@H](CCCCN)C(=O)N1CCC(N)(C(=O)O)CC1 [Compound 3] (H-[dPhLac][dF][dL][dK]-{Piperidin1yl(4-NH2,4-COOH)})
3. COC(=O)NC1CCN(C(=O)[C@@H](C)NC(=O)[C@@H](CC(C)C)NC(=O)[C@@H](Cc2ccccc2)NC(=O)[C@H](N)Cc2ccccc2)CC1 [Compound 12A] (H-[dF][dF][dL][dA]-X4)
4. CN=S1(=O)CCN(C(=O)[C@@H](CCCCN)NC(=O)[C@@H](CC(C)C)NC(=O)[C@@H](Cc2ccccc2)NC(=O)N(CCN)Cc2ccccc2)CC1
5. CC(C)C[C@@H](NC(=O)[C@@H](Cc1ccccc1)NC(=O)N(C)C(CN)c1ccccc1)C(=O)N[C@H](CCCCN)C(=O)N1CCC2(CC1)CNC(=O)c1ncccc12 (some centres unmarked)

Reply:
1: 2.56; 2: 3.52; 3: 2.53; 4: 2.76; 5: 2.76
